# Tested on: NCI-H596
# Method Notes: relative viability (nuclei count vs DMSO), 5 days (fraction); higher = more cells survive
# Condition Label: first compound 0.1 µM
Property Name: relative viability

1) NC(=O)Nc1cc(-c2cccc(F)c2)sc1C(=O)N[C@H]1CCCNC1 [AZD7762] + CS(=O)(=O)N1CCN(Cc2cc3nc(-c4cccc5[nH]ncc45)nc(N4CCOCC4)c3s2)CC1 [Pictilisib] (partner 1 µM) :: 0.487
2) NC(=O)Nc1cc(-c2cccc(F)c2)sc1C(=O)N[C@H]1CCCNC1 [AZD7762] + C[C@@H](Oc1cc(-c2cnn(C3CCNCC3)c2)cnc1N)c1c(Cl)ccc(F)c1Cl [Crizotinib] (partner 1 µM) :: 1.02
3) NC(=O)Nc1cc(-c2cccc(F)c2)sc1C(=O)N[C@H]1CCCNC1 [AZD7762] + Cc1nc(NC(=O)N2CCC[C@H]2C(N)=O)sc1-c1ccnc(C(C)(C)C(F)(F)F)c1 [Alpelisib] (partner 2 µM) :: 0.481
4) NC(=O)Nc1cc(-c2cccc(F)c2)sc1C(=O)N[C@H]1CCCNC1 [AZD7762] + CC1(C)CCC(c2ccc(Cl)cc2)=C(CN2CCN(c3ccc(C(=O)NS(=O)(=O)c4ccc(N[C@H](CCN5CCOCC5)CSc5ccccc5)c(S(=O)(=O)C(F)(F)F)c4)cc3)CC2)C1 [Navitoclax] (partner 0.5 µM) :: 1.06
5) NC(=O)Nc1cc(-c2cccc(F)c2)sc1C(=O)N[C@H]1CCCNC1 [AZD7762] + CC(=O)Nc1cccc(-n2c(=O)n(C3CC3)c(=O)c3c(Nc4ccc(I)cc4F)n(C)c(=O)c(C)c32)c1 [Trametinib] (partner 0.02 µM) :: 0.923
6) NC(=O)Nc1cc(-c2cccc(F)c2)sc1C(=O)N[C@H]1CCCNC1 [AZD7762] + Cc1cc(Nc2cc(N3CCN(C)CC3)nc(Sc3ccc(NC(=O)C4CC4)cc3)n2)n[nH]1 [Tozasertib] (partner 0.1 µM) :: 0.847

###

# Test system: NCI-H650
# Method Notes: relative viability (nuclei count vs DMSO), 5 days (fraction); higher = more cells survive
# Condition Label: first compound 8 µM
Property Name: relative viability

1) C=C1C(=O)O[C@@H](CCCCCCCC)[C@@H]1C(=O)O [C-75] + Nc1ncn([C@H]2C[C@H](O)[C@@H](CO)O2)c(=O)n1 [Decitabine] (partner 2 µM) :: 0.403
2) C=C1C(=O)O[C@@H](CCCCCCCC)[C@@H]1C(=O)O [C-75] + NC(=O)Nc1cc(-c2cccc(F)c2)sc1C(=O)N[C@H]1CCCNC1 [AZD7762] (partner 0.2 µM) :: 1.02
3) C=C1C(=O)O[C@@H](CCCCCCCC)[C@@H]1C(=O)O [C-75] + CS(=O)(=O)N1CCN(Cc2cc3nc(-c4cccc5[nH]ncc45)nc(N4CCOCC4)c3s2)CC1 [Pictilisib] (partner 1 µM) :: 0.883

###

# Test system: NCI-H1395
# Method Notes: relative viability (nuclei count vs DMSO), 5 days (fraction); higher = more cells survive
# Condition Label: first compound 0.253 µM
Property Name: relative viability

1. Oc1nc(-c2ccc(C(F)(F)F)cc2)nc2c1CSCC2 [XAV939] + CS(=O)(=O)N1CCN(Cc2cc3nc(-c4cccc5[nH]ncc45)nc(N4CCOCC4)c3s2)CC1 [Pictilisib] (partner 1 µM) :: 0.58
2. Oc1nc(-c2ccc(C(F)(F)F)cc2)nc2c1CSCC2 [XAV939] + Cc1cc(Nc2cc(N3CCN(C)CC3)nc(Sc3ccc(NC(=O)C4CC4)cc3)n2)n[nH]1 [Tozasertib] (partner 0.1 µM) :: 0.651
3. C=C1C(=O)O[C@@H](CCCCCCCC)[C@@H]1C(=O)O [C-75] + Cc1nc(Nc2ncc(C(=O)Nc3c(C)cccc3Cl)s2)cc(N2CCN(CCO)CC2)n1 [Dasatinib] (partner 0.075 µM) :: 0.388
